- System: 966289-007-R4-J1-PDC complex spheroid viability
- Test Name: Anticancer human tumor 966289-007-R4-J1-PDC patient-derived pancreatic adenocarcinoma cell line growth inhibition [GQUAD]
- Condition Parameters: second compound 3.16 µM; first compound 0.316 µM; active compounds read low
Property Name: viability, T/C

Answered examples (2):
Compound	viability, T/C
CC1COCCN1c1cc(C2(S(C)(=N)=O)CC2)nc(-c2ccnc3[nH]ccc23)n1 (stereo not drawn) + Cc1[nH]c2ccc(F)cc2c1-c1nc2c3cccnc3c3ncccc3c2[nH]1	107%
O=C(c1cc(Cc2n[nH]c(=O)c3ccccc23)ccc1F)N1CCN(C(=O)C2CC2)CC1 + Cc1[nH]c2ccc(F)cc2c1-c1nc2c3cccnc3c3ncccc3c2[nH]1	111%

Inquiry: Look up viability, T/C of CCCS(=O)(=O)Nc1ccc(F)c(C(=O)c2c[nH]c3ncc(-c4ccc(Cl)cc4)cc23)c1F + Cc1[nH]c2ccc(F)cc2c1-c1nc2c3cccnc3c3ncccc3c2[nH]1 and report it.
Reply text: 115%

----------
- System: 966289-007-R4-J1-PDC complex spheroid viability
- Test Name: Anticancer human tumor 966289-007-R4-J1-PDC cell line growth inhibition [GQUAD];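 note: spheroids exposed to the agents for seven days before readout; percent viability relative to DMSO vehicle control wells taken as 100%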
- Condition Parameters: second compound 1 µM; first compound 0.0316 µM; active compounds read low
- Source text: DNA G-quadruplex Stabilizer Agents in Combinations in Complex Spheroids A high-throughput screen of multi-cell type tumor spheroids was designed to identify active combinations of DNA G-quadruplex stabilizer agents and targeted small molecules. […] Compounds. […] If the clinical Cmax for an agent had not been determined, the highest concentration tested was 10 microM. […]
Threshold 80%: viability, T/C strictly smaller gives Condition met, otherwise Condition not met.

Compound	Class Name
CC[C@@]1(O)C(=O)OCc2c1cc1n(c2=O)Cc2cc3c(CN(C)C)c(O)ccc3nc2-1 + CN(C)c1ccc(Nc2c3ccc(NC(=O)CCN4CCCC4)cc3nc3cc(NC(=O)CCN4CCCC4)ccc23)cc1	Condition not met
CC1COCCN1c1cc(-c2ccnn2C)c2ccnc(-c3ccn[nH]3)c2n1 (stereo not given) + Cc1cnc(CNC(=O)c2c(=O)c3ccc(N4CCCN(C)CC4)nc3n3c2sc2ccccc23)cn1	Condition met

Inquiry: # strict comparison: is reported viability, T/C < 80%? input = C#Cc1c(F)ccc2cc(O)cc(-c3ncc4c(N5CC6CCC(C5)N6)nc(OCC56CCCN5CC(F)C6)nc4c3F)c12 (stereo not given) + Cc1cnc(CNC(=O)c2c(=O)c3ccc(N4CCCN(C)CC4)nc3n3c2sc2ccccc23)cn1
Reply text: Condition met

Inquiry: viability, T/C under 80%? Item: CC1COCCN1c1cc(C2(O)CC3CCC(C2)O3)c2cnn(-c3ccn[nH]3)c2n1 (stereo not given) + CN(C)c1ccc(Nc2c3ccc(NC(=O)CCN4CCCC4)cc3nc3cc(NC(=O)CCN4CCCC4)ccc23)cc1
Reply text: Condition not met

----------
- System: 966289-007-R4-J1-PDC complex spheroid viability
- Test Name: Anticancer human tumor 966289-007-R4-J1-PDC cell line growth inhibition [GQUAD];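 note: spheroids exposed to the agents for seven days before readout; percent viability relative to DMSO vehicle control wells taken as 100%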
- Condition Parameters: second compound 0.1 µM; first compound 0.1 µM; active compounds read low
Property Name: viability, T/C (%)
Just the number in %, nothing appended.

Take a look at these entries with their results.
Molecule	Value Reported
CC(=O)O[C@H]1C(=O)[C@@]2(C)[C@H]([C@H](OC(=O)c3ccccc3)[C@]3(O)C[C@H](OC(=O)[C@H](O)[C@@H](NC(=O)c4ccccc4)c4ccccc4)C(C)=C1C3(C)C)[C@]1(OC(C)=O)CO[C@@H]1C[C@@H]2O + Cc1cnc(CNC(=O)c2c(=O)c3ccc(N4CCCN(C)CC4)nc3n3c2sc2ccccc23)cn1	2.87
O=C(c1cc(Cc2n[nH]c(=O)c3ccccc23)ccc1F)N1CCN(C(=O)C2CC2)CC1 + Cc1[nH]c2ccc(F)cc2c1-c1nc2c3cccnc3c3ncccc3c2[nH]1	103
COc1ccc([C@@H](O)c2cc(-c3ncnc4cc(N5CCOCC5)ccc34)c(F)cc2Cl)nn1 + CN(C)c1ccc(Nc2c3ccc(NC(=O)CCN4CCCC4)cc3nc3cc(NC(=O)CCN4CCCC4)ccc23)cc1	97.8
O=C(c1cc(Cc2n[nH]c(=O)c3ccccc23)ccc1F)N1CCN(C(=O)C2CC2)CC1 + Cc1cnc(CNC(=O)c2c(=O)c3ccc(N4CCCN(C)CC4)nc3n3c2sc2ccccc23)cn1	26
COc1ncnc(C2CC2)c1-c1ncc2cnn(Cc3ccc(-c4nc(C(F)(F)F)cn4C(C)C)cc3)c2n1 + Cc1cnc(CNC(=O)c2c(=O)c3ccc(N4CCCN(C)CC4)nc3n3c2sc2ccccc23)cn1	24.1
COc1cc(C2c3cc4c(cc3C(OC3OC5COC(C)OC5C(O)C3O)C3COC(=O)C23)OCO4)cc(OC)c1O (stereo not drawn) + CN(C)c1ccc(Nc2c3ccc(NC(=O)CCN4CCCC4)cc3nc3cc(NC(=O)CCN4CCCC4)ccc23)cc1	107

Inquiry: Note viability, T/C for the molecule shown: CC1COCCN1c1cc(C2(O)CC3CCC(C2)O3)c2cnn(-c3ccn[nH]3)c2n1 (stereo not drawn) + CN(C)c1ccc(Nc2c3ccc(NC(=O)CCN4CCCC4)cc3nc3cc(NC(=O)CCN4CCCC4)ccc23)cc1
Reply text: 81.4

Inquiry: Given the molecule O=C(NO)c1cnc(N2CCN(S(=O)(=O)c3ccc4ccccc4c3)CC2)nc1 + Cc1cnc(CNC(=O)c2c(=O)c3ccc(N4CCCN(C)CC4)nc3n3c2sc2ccccc23)cn1 , write its reported viability, T/C.
Reply text: 31.9

Inquiry: In one line, give reported viability, T/C of the entry Cc1cccc(N(C)C(=O)C2C(O)CCN2c2nc(C)cc(C(F)(F)F)c2C#N)c1 (stereo not drawn) + Cc1[nH]c2ccc(F)cc2c1-c1nc2c3cccnc3c3ncccc3c2[nH]1 .
Reply text: 98.6

Inquiry: Let me know recorded viability, T/C for COc1ccc([C@@H](O)c2cc(-c3ncnc4cc(N5CCOCC5)ccc34)c(F)cc2Cl)nn1 + Cc1[nH]c2ccc(F)cc2c1-c1nc2c3cccnc3c3ncccc3c2[nH]1 , thanks.
Reply text: 101

Inquiry: State its viability, T/C for this molecule: CC1COCCN1c1cc(-c2ccnn2C)c2ccnc(-c3ccn[nH]3)c2n1 (stereo not drawn) + CN(C)c1ccc(Nc2c3ccc(NC(=O)CCN4CCCC4)cc3nc3cc(NC(=O)CCN4CCCC4)ccc23)cc1
Reply text: 97.5

Inquiry: Determine its reported viability, T/C: CCCS(=O)(=O)Nc1ccc(F)c(C(=O)c2c[nH]c3ncc(-c4ccc(Cl)cc4)cc23)c1F + Cc1[nH]c2ccc(F)cc2c1-c1nc2c3cccnc3c3ncccc3c2[nH]1
Reply text: 110

Inquiry: Please list viability, T/C recorded for the molecule C=CC(=O)N1CCN(c2nc(=O)n(-c3c(C)ccnc3C(C)C)c3nc(-c4c(O)cccc4F)c(F)cc23)C(C)C1 (stereo not drawn) + Cc1[nH]c2ccc(F)cc2c1-c1nc2c3cccnc3c3ncccc3c2[nH]1
Reply text: 96.6

Inquiry: Using the record for CC(C)n1c(=O)n(C)c2cnc3cc(F)c(-c4ccc(OCCCN5CCCCC5)nc4)cc3c21 + Cc1cnc(CNC(=O)c2c(=O)c3ccc(N4CCCN(C)CC4)nc3n3c2sc2ccccc23)cn1 , state its measured viability, T/C.
Reply text: 7.68

Inquiry: Hello, please tell me recorded viability, T/C for this one: CC(C)(O)C1CCC(Nc2ccc3ncc(-c4cccc(C(F)(F)F)c4)n3n2)CC1 (stereo not drawn) + Cc1cnc(CNC(=O)c2c(=O)c3ccc(N4CCCN(C)CC4)nc3n3c2sc2ccccc23)cn1
Reply text: 29.9

Inquiry: Indicate its recorded viability, T/C; the molecule in question is CC1COCCN1c1cc(C2(S(C)(=N)=O)CC2)nc(-c2ccnc3[nH]ccc23)n1 (stereo not drawn) + CN(C)c1ccc(Nc2c3ccc(NC(=O)CCN4CCCC4)cc3nc3cc(NC(=O)CCN4CCCC4)ccc23)cc1
Reply text: 101

Inquiry: Let me know recorded viability, T/C for COc1cccc2c1C(=O)c1c(O)c3c(c(O)c1C2=O)CC(O)(C(=O)CO)CC3OC1CC(N)C(O)C(C)O1 (stereo not drawn) + CN(C)c1ccc(Nc2c3ccc(NC(=O)CCN4CCCC4)cc3nc3cc(NC(=O)CCN4CCCC4)ccc23)cc1 , thanks.
Reply text: 19.4

Inquiry: Tell me viability, T/C reported for CC1COCCN1c1cc(C2(O)CC3CCC(C2)O3)c2cnn(-c3ccn[nH]3)c2n1 (stereo not drawn) + Cc1[nH]c2ccc(F)cc2c1-c1nc2c3cccnc3c3ncccc3c2[nH]1
Reply text: 53.8
